Molecular target: recombinant form of Glutaminase 1 (GAC) (Homo sapiens)
Experiment: Recombinant Enzyme Assay - Time Dependence (60 minutes enzyme/compound preincubation)
Type: biochemical
Details: read-out: GAC Delta N2 IC50 60 min
observable: IC50 (nM)

• O=C(Cc1ccccc1)Nc1ccc(CCCCc2nnc(NC(=O)Cc3ccc(F)c(CN4CCNCC4)c3)s2)nn1 = 19
• O=C(Cc1ccccc1F)Nc1ccc(CCCCc2nnc(NC(=O)Cc3ccccc3Cl)s2)nn1 = 6
• CC(C(=O)Nc1nnc(CCCCc2ccc(NC(=O)Cc3ccccc3)nn2)s1)c1ccc(F)c(CNC(=O)OC(C)(C)C)c1 (stereo not shown) = 9
• CC(NC(=O)OC(C)(C)C)c1cc(CC(=O)Nc2ccc(CCCCc3nnc(NC(=O)Cc4ccccc4)s3)nn2)ccc1F (stereo not shown) = 5
• CC(C(=O)Nc1nnc(CCCCc2ccc(NC(=O)Cc3cccc(CNC(=O)CC(O)C(F)(F)F)c3)nn2)s1)c1ccccc1 (stereo not shown) = 7

1. CC(C)NC(=O)Nc1nnc(CCCCc2nnc(NC(=O)Cc3ccccc3)s2)s1
2. CC(C(=O)Nc1ccc(CCCCc2nnc(NC(=O)C(O)c3cccc(Cl)c3)s2)nn1)c1ccccc1 (stereo not shown)
3. CC(C(=O)Nc1nnc(CCCCc2ccc(NC(=O)Cc3cccc(CNC(=O)OC(C)(C)C)c3)nn2)s1)c1ccccc1 (stereo not shown)
4. CN(C)Cc1cccc(CC(=O)Nc2nnc(CCCCc3nnc(NC(=O)Cc4ccccc4)s3)s2)c1
Please list the entries, largest IC50 first. In plain terms: list the labels in the order you were asked to.
1, 4, 2, 3

a. COC(C(=O)Nc1nnc(CCCCc2ccc(NC(=O)Cc3cccc(CNC(=O)CC(O)C(F)(F)F)c3)nn2)s1)c1ccccc1 (stereo not shown)
b. CC(C(=O)Nc1nnc(CCCCc2ccc(NC(=O)Cc3cccc(CNC(=O)CC(C)(O)C(F)(F)F)c3)nn2)s1)c1ccccc1 (stereo not shown)
Endpoint returns whichever of a and b has the numerically higher IC50. Bench note: the answer is the label of the chosen record.
a

P. COC(C(=O)Nc1nnc(CCCCc2ccc(NC(=O)Cc3cccc(CNC(=O)CC(C)(O)C(F)(F)F)c3)nn2)s1)c1ccccc1 (stereo not shown)
Q. CC(=O)N1CCN(Cc2cc(CC(=O)Nc3nnc(CCCCc4ccc(NC(=O)Cc5ccccc5)nn4)s3)ccc2F)CC1
Please indicate which item has the smaller measured IC50: P versus Q // output: label of the selected item
Q
